Tested on: EKVX NSCLC
Assay Info: NCI tumour cell line growth inhibition, 48 h
Result Type: TGI (µM)
Give the value in µM but do not write µM after it.

{"columns": ["Molecule", "TGI / µM"],
 "data": [
  ["CCN(CC)CCN1CC(O)=C(c2nc(-c3ccc(Cl)cc3)cs2)C1=N", 33.9]
]}

What is its TGI for EKVX NSCLC? Entry: CCC[CH2][Sn]1([CH2]CCC)[O]C(=O)C(C(C)C)N=Cc2ccccc2[O]1 (stereo not given)
1.67

###

Listed compounds paired with reported TGI
Tested on: HT29 colon
Assay Info: NCI tumour cell line growth inhibition, 48 h

Some compounds with known TGI results, for comparison:
{"columns": ["Compound", "TGI"],
 "data": [
  ["CCOC(=O)NC(=O)c1cn(CCOCCOC(=O)NCCCCCCNC(=O)OCCOCCn2cc(C(=O)NC(=O)OCC)c(=O)[nH]c2=O)c(=O)[nH]c1=O", "> 100 µM"],
  ["COC(=O)c1cc(Br)c(Br)n1C", "> 100 µM"],
  ["O=c1[nH]c(=O)n(C/C=C/CO)nc1Br", "> 100 µM"],
  ["C[N+]12CCCCC1C(COc1cccc3cccnc13)CCC2 (configuration not stated)", "> 100 µM"],
  ["Nc1ncc(-c2cnn(CCO)c2)c2scc(-c3ccc(NC(=O)Nc4cccc(F)c4)cc3)c12", "2.07 µM"]
]}

Turning to the following compound.
Fill in: TGI of `CCOC(=O)CN=c1nc(SC)sc2c(C(=O)OCC)nc(Sc3ccccc3)n12` is ___
> 100 µM

###

Listed here: items and their measured TGI.
Test system: UO-31 renal
Assay Info: NCI tumour cell line growth inhibition, 48 h

{"columns": ["Molecule", "TGI"],
 "data": [
  ["CCN(CC)C(=O)c1cc(OC(C)C)ccc1-c1c(C)cc(OC(C)C)c(OC)c1OC", "> 100 µM"]
]}

Please tell me: TGI of `O=S(=O)(O)CCSSCCS(=O)(=O)O` , system UO-31 renal?
> 1000 µM

Record: `COc1ccc(C(=O)c2cc(C)c(OC)c(C)c2)c(OC)c1N(C(=O)C(Cl)Cl)C(=O)C(Cl)Cl`
> 47.5 µM

Do the same for `NCCCC[C@@H]1NC(=O)[C@H]2CCCN2C(=O)[C@H](Cc2ccccc2)NC(=O)[C@H](Cc2ccccc2)CNC1=O` please
> 100 µM

###

Test system: SW-620 colon
Assay Info: NCI tumour cell line growth inhibition, 48 h; in the data active means GI50 below about 0.43 µM; inactive means the rest
Thanks in advance; please answer with one of these: class 1 (active), class 0 (inactive)

{"columns": ["Molecule", "Target Under Test", "Assigned Category"],
 "data": [
  ["CCOC(=O)Sc1ncnc2nc[nH]c12", "SW-620 colon", "class 0"],
  ["CCC[CH2][Sn]1([CH2]CCC)[O]C(=O)C(C(C)C)N=Cc2ccccc2[O]1 (stereo not drawn)", "SW-620 colon", "class 1"],
  ["CCOC(=O)c1c(CN2CCN(c3ccccc3)CC2)n(-c2ccccc2)c2cc(Br)c(O)cc12", "SW-620 colon", "class 0"],
  ["Cc1ccc(C(=NN=C(N)N)c2ccc(C)cc2)cc1", "SW-620 colon", "class 1"],
  ["CCN(CC)CCCC(C)Nc1c(C)cnc2cc(Cl)c(C)cc12 (stereo not drawn)", "SW-620 colon", "class 0"],
  ["CC(=O)OC1Oc2ccccc2-c2oc(=O)c(-c3cc4ccc(N(C)C)cc4oc3=O)cc21 (stereo not drawn)", "SW-620 colon", "class 0"],
  ["Nc1ncc(-c2cnn(CCO)c2)c2scc(-c3ccc(NC(=O)Nc4cccc(F)c4)cc3)c12", "SW-620 colon", "class 1"]
]}

Proceed to the following item.
What was the test verdict on `CCN1C(=O)CNc2ncc(-c3ccc(-c4ncn[nH]4)nc3C)nc21` ?
class 0
